measurement.target: T1, human CD8 alpha (CD8A) on primary human CD8+ T cells (human, UniProt P01732 22-235)
T1 construct: whole, on cells; also called hCD8A
T1 sequence (P01732 22-235): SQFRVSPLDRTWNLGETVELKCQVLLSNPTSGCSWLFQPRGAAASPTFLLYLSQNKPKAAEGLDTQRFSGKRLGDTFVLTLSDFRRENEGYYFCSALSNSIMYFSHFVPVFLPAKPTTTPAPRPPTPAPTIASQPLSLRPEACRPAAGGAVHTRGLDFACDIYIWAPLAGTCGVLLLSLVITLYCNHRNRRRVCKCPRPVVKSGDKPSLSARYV
experiment.description: flow cytometry, human CD8+ T cells, 0.2 uM FN3
value.kind: Human T-cell Binding 0.2 uM (MFI)
The reply should read as a number followed by its unit.

Example entries and their recorded answers appear below.
P282BR9P1357_D12 (designed binder, FN3 domain) LPAPKNLVVSRVTEDSARLSWGQYITAFSFDSFLIQYQESEKVGEAIVLTVPGSERSYDLTGLKPGTEYTVSIYGVDVAWFQGKPTWSNPLSAIFTT	3900 MFI
P282FR9P1361_C7 (designed binder, FN3 domain) LPAPKNLVVSRVTEDSARLSWTAPDAAFDSFGIWYHEYGGDGEAIVLTVPGSERSYDLTGLKPGTEYDVAIWGVKGGDVSYPLSAIFTT	1580 MFI
P283AR9P1362_F8 (designed binder, FN3 domain) LPAPKNLVVSRVTEDSARLSWGYYHGHFDSFLIQYQESEKVGEAIVLTVPGSERSYDLTGLKPGTEYTVSIYGVDVKWEGNRPVASNPLSAIFTT	3170 MFI

In: # lookup: Human T-cell Binding 0.2 uM (MFI) of P282DR9P1359_A12 (designed binder, FN3 domain) LPAPKNLVVSRVTEDSARLSWTAPEAAFDSFQIAYPEWPPPREAIVLTVPGSERSYDLTGLKPGTEYFVVIQGVKGGEISWPLSAIFTT
Out: 5950 MFI

These data points were gathered from patent US20210032312A1.
